molecular target: c-kit kinase (Homo sapiens); construct: The c-kit (or kinase domain thereof) is an active kinase in AlphaScreen; poly-Histidine tag (in-house protein only) (cleaved yes); host or cells: E. coli BL21(DE3)RIL, co-expressed with PTP1B; experiment: c-Kit biochemical assay, AlphaScreen, 10 μM ATP; details: c-kit biochemical inhibitory activity; read-out: Biochemical activity (IC50 μM) Kit
Sequence (P10721 26-976): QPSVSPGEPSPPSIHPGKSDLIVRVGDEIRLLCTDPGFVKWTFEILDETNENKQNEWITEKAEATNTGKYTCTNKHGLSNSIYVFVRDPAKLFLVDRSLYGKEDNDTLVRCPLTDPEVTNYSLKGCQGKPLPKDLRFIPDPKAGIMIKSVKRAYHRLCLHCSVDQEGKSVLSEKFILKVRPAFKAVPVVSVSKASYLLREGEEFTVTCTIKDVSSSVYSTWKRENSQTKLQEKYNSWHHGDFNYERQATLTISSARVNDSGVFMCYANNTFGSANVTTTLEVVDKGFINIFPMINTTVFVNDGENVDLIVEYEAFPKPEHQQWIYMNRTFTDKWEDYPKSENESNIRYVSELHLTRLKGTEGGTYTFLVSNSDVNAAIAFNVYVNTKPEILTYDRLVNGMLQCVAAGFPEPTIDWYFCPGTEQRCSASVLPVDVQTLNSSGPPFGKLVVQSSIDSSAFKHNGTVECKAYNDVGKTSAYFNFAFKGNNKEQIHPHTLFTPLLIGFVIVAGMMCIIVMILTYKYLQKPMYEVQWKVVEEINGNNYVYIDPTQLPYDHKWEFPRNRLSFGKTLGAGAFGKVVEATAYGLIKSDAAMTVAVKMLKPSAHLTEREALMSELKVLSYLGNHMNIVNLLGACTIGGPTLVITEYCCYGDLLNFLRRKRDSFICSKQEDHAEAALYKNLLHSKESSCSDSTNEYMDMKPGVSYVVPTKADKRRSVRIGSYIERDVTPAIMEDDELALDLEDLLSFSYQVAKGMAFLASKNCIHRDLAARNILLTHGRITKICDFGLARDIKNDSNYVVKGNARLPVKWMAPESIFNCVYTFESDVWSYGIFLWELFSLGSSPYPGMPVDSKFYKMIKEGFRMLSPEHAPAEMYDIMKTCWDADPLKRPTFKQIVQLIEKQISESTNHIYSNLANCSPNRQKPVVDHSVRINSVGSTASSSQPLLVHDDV
measurement type: IC50

Reference set, count: 4
>>> print(df.to_string())
                                   molecule  measurement_type         reading
0  Cc1cc2c(-c3ccc(NS(=O)(=O)c4ccc(Cl)cc4F)c(F)c3)ncnc2[nH]1              IC50  0.0001 to 1 µM
1  CCCNS(=O)(=O)N1CCN(c2ncnc3[nH]c(-c4ccccc4)cc23)CC1              IC50      1 to 10 µM
2  O=C(NCc1ccc(F)cc1)N1CCN(c2ncnc3[nH]c(-c4ccncc4)cc23)CC1              IC50      1 to 10 µM
3  C[C@H](NC(=O)N1CC2CCC1CN2c1ncnc2cc(-c3ccc(F)cc3)sc12)c1cccc(Cl)c1 (stereo partly drawn)              IC50      1 to 10 µM

// for each molecule in input: emit IC50
1. C[C@@H]1CN(c2ncnc3[nH]c(-c4ccncc4)cc23)CCN1C(=O)NCc1cccc(Cl)c1
2. O=S(=O)(Nc1ccc(-c2ncnc3cc4c(cc23)OCCO4)c(F)c1)C1CC1
3. COc1cc2c(-c3ccc(NS(=O)(=O)N4CCCC4)cc3F)ncnc2cc1OCCCN1CCCCC1
4. CCc1ccc(S(=O)(=O)Nc2ccc(-c3ncnc4[nH]c(C)cc34)c(F)c2)cc1
5. O=C(Nc1ccc(OC(F)(F)F)cc1)N1CCN(c2ncnc3[nH]c(-c4ccc(C5CC5)nc4)cc23)CC1
6. C[C@H](NC(=O)N1CCN(c2ncnc3[nH]c(-c4ccncc4)cc23)C[C@H]1C)c1ccc(Cl)cc1
7. Cc1ccc(S(=O)(=O)Nc2ccc(-c3ncnc4cc(C5=CCN(C(=O)N6CCOCC6)CC5)sc34)cc2)cc1

1. 1 to 10 µM
2. 10 to 200 µM
3. 1 to 10 µM
4. 1 to 10 µM
5. 1 to 10 µM
6. 0.0001 to 1 µM
7. 0.0001 to 1 µM

====

Consider the following molecules; for each one, report its IC50.
target: c-kit kinase (Homo sapiens); construct: The c-kit (or kinase domain thereof) is an active kinase in AlphaScreen; poly-Histidine tag (in-house protein only) (cleaved yes); host or cells: E. coli BL21(DE3)RIL, co-expressed with PTP1B; test: c-Kit biochemical assay, AlphaScreen, 10 μM ATP; conditions: c-kit biochemical inhibitory activity; read-out: Biochemical activity (IC50 μM) Kit

Examples from the recorded data:
>>> df
                                   molecule            system_under_test  measurement_type       reading
0  O=C(Nc1ccc(F)cc1)N1CCN(c2ncnc3[nH]ccc23)CC1  c-kit kinase (Homo sapiens)              IC50    1 to 10 µM
1  CCc1ccc(S(=O)(=O)NC2CCN(c3ncnc4[nH]ccc34)CC2)cc1  c-kit kinase (Homo sapiens)              IC50  10 to 200 µM
2  COc1ccc(S(=O)(=O)N2CCN(c3ncnc4[nH]ccc34)CC2)c(N)c1  c-kit kinase (Homo sapiens)              IC50  10 to 200 µM

Please supply IC50 for each of the following items, keeping them in order.
1. O=C(Nc1ccc(Cl)cc1)NC1CCN(c2ncnc3[nH]ccc23)CC1
2. O=C(NS(=O)(=O)c1ccc(Cl)cc1)N1CCN(c2ncnc3[nH]c(-c4ccc(F)cc4)cc23)CC1
3. COc1ccc(S(=O)(=O)Nc2ccc(-c3ncnc4[nH]c(-c5ccc(F)cc5)cc34)cc2F)cc1
4. C[C@H](NC(=O)N1CCN(c2ncnc3[nH]c(-c4ccc(Cl)cc4)cc23)C[C@H]1C)c1ccc(F)cc1
5. CC(C)(C)c1cc2ncnc(N3CCN(C(=O)Nc4ccc(F)cc4)CC3)c2s1

1. 10 to 200 µM
2. 1 to 10 µM
3. 10 to 200 µM
4. 10 to 200 µM
5. 10 to 200 µM

====

target: c-kit mutant D816V (Homo sapiens, UniProt P10721, D816V/DEL694-753); construct: residues 551-934, kinase insertion domain residues 694-753 deleted; 6x-histidine (N); made in house; host or cells: E. coli Arctic Express (DE3) RIL (Stratagene); assay: c-Kit mutant D816V biochemical assay, AlphaScreen; settings: c-kit D816V biochemical inhibitory activity; read-out: Biochemical activity (IC50 μM) Kit D816V
Sequence (P10721 with tags, fused parts or gaps DEL694-753/D816V): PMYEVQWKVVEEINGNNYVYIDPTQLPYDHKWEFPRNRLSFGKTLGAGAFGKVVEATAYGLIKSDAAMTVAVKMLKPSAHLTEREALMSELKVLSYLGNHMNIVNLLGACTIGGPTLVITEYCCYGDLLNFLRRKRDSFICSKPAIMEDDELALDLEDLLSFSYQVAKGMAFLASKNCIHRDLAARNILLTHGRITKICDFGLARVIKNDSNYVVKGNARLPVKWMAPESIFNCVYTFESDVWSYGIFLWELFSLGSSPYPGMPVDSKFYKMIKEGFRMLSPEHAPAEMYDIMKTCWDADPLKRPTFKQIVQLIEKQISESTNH
measurement type: IC50

// known answers, use as guide
>>> df
                                   compound         reading
0  Cc1cc2c(-c3ccc(NS(=O)(=O)c4ccc(C)c(F)c4)c(F)c3)ncnc2[nH]1      1 to 10 µM
1  Cc1nn(C)cc1-c1cc2ncnc(C3CCN(C(=O)N[C@@H](C)c4ccc(F)cc4)CC3)c2s1      1 to 10 µM
2  Cc1ccc(S(=O)(=O)Nc2ccc(-c3ncnc4cc(C5=CCNCC5)sc34)cc2)cc1  0.0001 to 1 µM
3  O=C(NCc1ccc(Cl)cc1)N1CCN(c2ncnc3[nH]c(Cl)cc23)CC1      1 to 10 µM

Kindly give each listed record's IC50.
1. O=S(=O)(NC1CCN(c2ncnc3[nH]c(C#CC4CC4)cc23)CC1)c1ccc(Cl)cc1
2. C[C@H](NC(=O)N1CCN(c2ncnc3[nH]c(-c4ccc(Cl)cc4)cc23)C[C@H]1C)c1ccc(Cl)cc1
3. Cc1cc2c(-c3ccc(NS(=O)(=O)c4ccc(Cl)cc4F)c(F)c3)ncnc2[nH]1
4. Cc1cc2c(-c3ccc(NS(=O)(=O)c4cc(Cl)c(Cl)s4)cc3)ncnc2[nH]1
5. CCNC(=O)N1CCN(c2ncnc3[nH]c(-c4ccc(F)cc4)cc23)CC1
6. C[C@@H]1CN(c2ncnc3[nH]c(-c4ccc(F)cc4)cc23)CCN1C(=O)N[C@H](C)c1ccc(Cl)cc1
7. Cn1cc(-c2cc3c(N4CCC(NS(=O)(=O)c5ccccc5OC(F)(F)F)CC4)ncnc3[nH]2)cn1

["10 to 200 µM", "1 to 10 µM", "1 to 10 µM", "1 to 10 µM", "1 to 10 µM", "1 to 10 µM", "10 to 200 µM"]

====

target: c-kit kinase (Homo sapiens); construct: The c-kit (or kinase domain thereof) is an active kinase in AlphaScreen; poly-Histidine tag (in-house protein only) (cleaved yes); host or cells: E. coli BL21(DE3)RIL, co-expressed with PTP1B; assay: c-Kit biochemical assay, AlphaScreen, 10 μM ATP; conditions: c-kit biochemical inhibitory activity; read-out: Biochemical activity (IC50 μM) Kit
measurement type: IC50

In [3]: df
Out[3]:
                                   molecule            system_under_test  measurement_type         reading
0      CCCNC(=O)NC1CCN(c2ncnc3[nH]ccc23)CC1  c-kit kinase (Homo sapiens)              IC50    10 to 200 µM
1  Cc1ccc(-c2cc3c(N4CCN(C(=O)N[C@@H](C)c5cccc(F)c5)C(C)(C)C4)ncnc3[nH]2)cn1  c-kit kinase (Homo sapiens)              IC50    10 to 200 µM
2  C[C@H](NC(=O)N1CCN(c2ncnc3[nH]c(-c4ccc(C#N)cc4)cc23)C[C@H]1C)c1cccc(Cl)c1  c-kit kinase (Homo sapiens)              IC50    10 to 200 µM
3  NS(=O)(=O)c1cccc(-c2cc3c(N4CCN(C(=O)Nc5ccc(OC(F)(F)F)cc5)CC4)ncnc3[nH]2)c1  c-kit kinase (Homo sapiens)              IC50  0.0001 to 1 µM
4  Cc1nn(C)cc1-c1cc2ncnc(N3CCN(C(=O)N[C@@H](C)c4cccc(Cl)c4)C(C)(C)C3)c2s1  c-kit kinase (Homo sapiens)              IC50      1 to 10 µM
5  Cc1cc2c(-c3ccc(NS(=O)(=O)c4ccc(C)c(F)c4)cc3F)ncnc2[nH]1  c-kit kinase (Homo sapiens)              IC50    10 to 200 µM
6  CNC(=O)c1cccc(-c2cc3c(N4CCN(C(=O)Nc5ccc(OC(F)(F)F)cc5)CC4)ncnc3[nH]2)c1  c-kit kinase (Homo sapiens)              IC50  0.0001 to 1 µM

Read off the recorded IC50 for `Cc1cc2c(N3CCN(C(=O)N[C@@H](C)c4ccc(F)cc4)[C@H](C)C3)ncnc2[nH]1`
10 to 200 µM
